assay details: NCI Yeast Anticancer Drug Screen. Data for the mec2-1 strain (AID 157)
condition details: S. cerevisiae mec2-1 strain, at 50.0 µM (retest, dose inferred, filed as 5.0), stronger effect = higher value
Compounds without any hit were thinned out: in the full panel of roughly 79,000, 15% have a hit.
measurement kind: growth inhibition (%)
Respond numerically; units are % and should not be typed.

Query string: Using the record for `C=COCCN1CCN(CCCN2c3ccccc3Sc3ccc(C(F)(F)F)cc32)CC1` , state its measured growth inhibition.
Result string: 99

Query string: Using the record for `O=C(O)c1cc2oc(-c3ccccc3)cc2[nH]1` , state its measured growth inhibition.
Result string: 71

Query string: Using the record for `O=[N+]([O-])c1ccc(Sc2ccc([N+](=O)[O-])o2)o1` , state its measured growth inhibition.
Result string: 100

Query string: Using the record for CCOC(=O)C1=C(c2ccccc2)OC(N)=C(C#N)C1c1ccc(C)cc1 (stereo unspecified) , state its measured growth inhibition.
Result string: 66

Query string: Using the record for `O=C(CSc1nnc(-c2ccc(N=Cc3ccc(Cl)cc3)cc2)o1)Nc1ccc(Cl)cc1Cl` , state its measured growth inhibition.
Result string: 99

Query string: Using the record for `Clc1ncccc1-n1cccc1/C=N\N=C/c1cccn1-c1cccnc1Cl` , state its measured growth inhibition.
Result string: 98

Query string: Using the record for `c1ccc(CSc2nnc(SCc3ccccc3)c3[nH]cnc23)cc1` , state its measured growth inhibition.
Result string: 38

Query string: Using the record for `Cc1cccc2c1nc1ccccc1[n+]2C` , state its measured growth inhibition.
Result string: 97

Query string: Using the record for `CC[C@H]1CN2CCc3cc(OC)c(OC)cc3[C@@H]2C[C@@H]1C[C@H]1NCCc2cc(OC)c(OC)cc21` , state its measured growth inhibition.
Result string: -2

Query string: Using the record for CC1(C)COC(c2cccc(C(O)c3ccc(Cl)cc3)c2)=N1 (stereo unspecified) , state its measured growth inhibition.
Result string: 99

Query string: Using the record for `NC(=O)NOC(=O)c1ccccc1` , state its measured growth inhibition.
Result string: 97

====

assay details: NCI Yeast Anticancer Drug Screen. Data for the mlh1 rad18 strain (AID 175)
condition details: S. cerevisiae mlh1 rad18 strain growth inhibition; at 50.0 µM
Description: Growth inhibition of yeast strains with defined genetic alterations is measured as a screen for potential anti-cancer activity. Selected strains with alterations in DNA damage repair or cell cycle control were exposed to compounds and growth inhibition was measured relative to vehicle treated controls. The strain used in this assay is mlh1 rad18
About 79,000 compounds went through this panel and 15% of them were active in at least one assay; those are over-represented in the sample as a whole. Calls of active or inactive are those of the source. Cut-off read from the data, not from the text of the source: active = growth inhibition above about 70%; inactive = the rest.
Select the correct class. Options are active, inactive and nothing else.

Query string: In this assay, the call recorded for CCC(C)CNCCCCCNc1cc(OC)cc2cccnc12 (configuration not stated) was what?
Result string: active

Query string: In this assay, the call recorded for CC(=O)c1ccc2c(c1)CC1(C2)Cc2ccccc2C1=O (configuration not stated) was what?
Result string: inactive

Query string: In this assay, the call recorded for `CCN(CC)CCCNc1c2c(Cl)cc(Cl)cc2nc2nc(=O)[nH]c(C)c12` was what?
Result string: inactive

Query string: In this assay, the call recorded for `CCN(CC)CCC(=O)/C=C/c1ccc(C)cc1` was what?
Result string: inactive

Query string: In this assay, the call recorded for CCOC(=O)C(N=Nc1ccc(Br)c(C)c1)C(C)=O (configuration not stated) was what?
Result string: active

Query string: In this assay, the call recorded for CC(=O)OC1CCCc2c1nc1ccccc1[n+]2[O-] (configuration not stated) was what?
Result string: inactive

Query string: In this assay, the call recorded for O=CC1(c2ccc(Cl)cc2)NC(=O)NC1=O (configuration not stated) was what?
Result string: inactive

Query string: In this assay, the call recorded for CCCCCCCCCCCCCCCC[N+](C)(C)C(C)c1ccc(OC)cc1 (configuration not stated) was what?
Result string: active

Query string: In this assay, the call recorded for `Cc1ccc(NC(=O)COC(=O)c2cccc3c(=O)c4ccccc4[nH]c23)cc1` was what?
Result string: inactive

Query string: In this assay, the call recorded for CCC1(C)OC(=O)C(c2ccccc2)O1 (configuration not stated) was what?
Result string: inactive

Query string: In this assay, the call recorded for COc1cccc(C2c3cc4c(cc3OC(O)C2C)OCO4)c1O (configuration not stated) was what?
Result string: inactive

Query string: In this assay, the call recorded for `COc1ccc2nccc(C(=O)CBr)c2c1` was what?
Result string: active

Cited source: PubChem BioAssay (NCI)
